assay: Concentration in blood plasma of dogs after oral solution of the thioamide derivative of fipronil; format: in vivo; settings: dog, plasma, Day 7, oral solution 100 mg/ml thioamide derivative
observable: concentration at 7 day

q: I have this molecule here, NC(=S)c1nn(-c2c(Cl)cc(C(F)(F)F)cc2Cl)c(N)c1[S+]([O-])C(F)(F)F (stereo not shown) [thioamide derivative of fipronil] , and I need its recorded concentration at 7 day.
a: 54600 ng/g

====

assay: Concentration in blood plasma of dogs after oral solution of the thioamide derivative of fipronil; assay type: in vivo; conditions: dog, plasma, Day 1, oral solution 100 mg/ml thioamide derivative
observable: concentration at 1 day (ng/g)
# output: bare number, implied unit ng/g

q: Query (molecule): NC(=S)c1nn(-c2c(Cl)cc(C(F)(F)F)cc2Cl)c(N)c1[S+]([O-])C(F)(F)F (stereo not shown) [thioamide derivative of fipronil] ; field requested: concentration at 1 day
a: 162000

====

Test: Concentration in the fur of a dog after topical spot-on solution of the thioamide
Format: in vivo
Conditions: Day 2, topical spot-on 100 mg/ml thioamide in diethylene glycol monoethyl ether, 0.1 ml/kg
Procedure: A topical spot-on solution of the thioamide solution containing 100 mg/ml of thioamide and diethylene glycol monoethyl ether was applied to the fur of a dog at the dose rate of 0.1 ml/kg of body weight. The concentration of fipronil in the fur was measured on day 2 and day 7.
observable: concentration at 2 day (ng/g)
# output: bare number, implied unit ng/g

q: concentration at 2 day lookup needed for NC(=S)c1nn(-c2c(Cl)cc(C(F)(F)F)cc2Cl)c(N)c1[S+]([O-])C(F)(F)F (stereo not shown) [thioamide derivative of fipronil] , thanks.
a: 363000

====

assay: Concentration in the fur of a dog after topical spot-on solution of the thioamide; assay type: in vivo; details: Day 7, topical spot-on 100 mg/ml thioamide in diethylene glycol monoethyl ether, 0.1 ml/kg
observable: concentration at 7 day (ng/g)
Value expressed in ng/g; do not type the unit.

q: # get_value(readout='concentration at 7 day', item= NC(=S)c1nn(-c2c(Cl)cc(C(F)(F)F)cc2Cl)c(N)c1[S+]([O-])C(F)(F)F (stereo not shown) [thioamide derivative of fipronil] )
a: 59300

====

assay: Concentration in blood plasma of dogs after oral solution of the thioamide derivative of fipronil; format: in vivo; settings: dog, plasma, Day 2, oral solution 100 mg/ml thioamide derivative
observable: concentration at 2 day (ng/g)
// return numeric value only (unit: ng/g, not printed)

q: Can you share its concentration at 2 day? I mean this molecule: NC(=S)c1nn(-c2c(Cl)cc(C(F)(F)F)cc2Cl)c(N)c1[S+]([O-])C(F)(F)F (stereo not shown) [thioamide derivative of fipronil]
a: 129000
